Molecular target: T1, RXFP1 receptor (UniProt Q9HBX9 1-757, limits assumed)
T1 sequence (looked up): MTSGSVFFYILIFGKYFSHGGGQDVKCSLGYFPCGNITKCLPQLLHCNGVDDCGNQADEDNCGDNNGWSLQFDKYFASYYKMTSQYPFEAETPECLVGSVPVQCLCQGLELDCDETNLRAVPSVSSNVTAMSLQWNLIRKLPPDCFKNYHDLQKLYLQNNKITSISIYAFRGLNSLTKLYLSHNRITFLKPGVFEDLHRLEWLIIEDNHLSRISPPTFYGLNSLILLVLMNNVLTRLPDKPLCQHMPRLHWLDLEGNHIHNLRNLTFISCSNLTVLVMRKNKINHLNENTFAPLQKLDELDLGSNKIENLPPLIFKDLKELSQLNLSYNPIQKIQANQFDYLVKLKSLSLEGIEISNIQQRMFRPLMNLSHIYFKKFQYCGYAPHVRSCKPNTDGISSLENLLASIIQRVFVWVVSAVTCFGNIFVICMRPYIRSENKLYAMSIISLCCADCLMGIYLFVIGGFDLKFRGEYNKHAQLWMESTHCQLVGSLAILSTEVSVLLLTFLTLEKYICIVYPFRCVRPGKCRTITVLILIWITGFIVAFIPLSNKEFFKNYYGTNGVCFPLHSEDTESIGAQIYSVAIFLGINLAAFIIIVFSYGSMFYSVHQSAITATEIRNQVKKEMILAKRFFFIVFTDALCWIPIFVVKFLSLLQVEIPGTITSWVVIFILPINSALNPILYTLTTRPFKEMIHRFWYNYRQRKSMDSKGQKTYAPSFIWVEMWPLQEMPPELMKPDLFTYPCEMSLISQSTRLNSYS
Assay: cell-based or functional assay
*1 amine or outer side, *2 acyl side, *3 side chain or, on linkers, in order; H or OH if unused. Primed or numbered codes have the meaning given here. Side-chain parts run from the residue outwards. [ ]: non-standard residue; d: D form. The star is where a group is joined. PEG8′ = 2-[2-[2-[2-[2-[2-[2-[2-[2-aminoethoxy]ethoxy]ethoxy]ethoxy]ethoxy]ethoxy]ethoxy]ethoxy]ethoxy]propanoyl; PEG2DGA = 2-[2-[3-[2-[2-(3-aminopropoxy)ethoxy]ethoxy]propylamino-2-oxo-ethoxy]acetyl; PEG28′ = polyethylene glycol spacer with 28 ethoxy units (aminoethoxy-ethoxy chain); Lys(Me3) = C[N+](C)(C)CCCC[C@H](N)C(=O)O; Arachidoyl = CCCCCCCCCCCCCCCCCCCC(=O)*; Arg(Me2s) = CN=C(NC)NCCC[C@H](N)C(=O)O; γGlu = O=C(O)[C@H](CCC(=O)[*:2])N[*:1]; Pentadecanoyl = CCCCCCCCCCCCCCC(=O)*; Arg(Me) = CNC(=N)NCCC[C@H](N)C(=O)O; Stearoyl = CCCCCCCCCCCCCCCCCC(=O)*; Palmitoyl = CCCCCCCCCCCCCCCC(=O)*; Myristoyl = CCCCCCCCCCCCCC(=O)*; αMeK = C[C@](N)(CCCCN)C(=O)O; Nle = CCCC[C@H](N)C(=O)O; PEG2′ = PEG2 spacer unit; PEG2″ = not defined here; Aib = CC(C)(N)C(=O)O
Observable: EC50 (nM), OVCAR 5 cells (cAMP)

Look over these answered cases.
Binder	Readout Units	Recorded Value
Ac-LEGREKVRAK(Ac)I[Aib][Aib]EG[Nle]STWS[Aib]RKK[PEG28′]K([γGlu-γGlu-γGlu-Stearoyl])-NH2 [peptide of SEQ ID NO: 48]	nM	0.25
Ac-LEGREKVRAK(Ac)I[Aib][Aib]EG[Nle]STWS[Aib]RKKK([PEG2′-PEG2′-PEG2′-γGlu-γGlu-γGlu-γGlu-Stearoyl])-NH2 [peptide of SEQ ID NO: 89]	nM	0.03
Ac-LEGREKVRAK(Ac)I[Aib][Aib]EG[Nle]STWS[Aib]RKK[PEG2″][PEG2″][PEG2″][PEG2″]K([γGlu-γGlu-γGlu-γGlu-Stearoyl])-NH2 [peptide of SEQ ID NO: 15]	nM	0.32
Ac-LEGREKVRAK(Ac)I[Aib][Aib]EG[Nle]STWS[Aib]RKK(Ac)K([PEG2′-PEG2′-PEG2′-γGlu-γGlu-γGlu-Myristoyl])-NH2 [peptide of SEQ ID NO: 178]	nM	17.6
Ac-LEGREKVRAK(Ac)I[Aib][Aib]EG[Nle]STWS[Aib][Arg(Me2s)]KK(Ac)K-NH2 (not fully specified (residue 25); printed as Ac-L-E-G-R-E-K-V-R-A-K(Ac)-I-Aib-Aib-E-G-Nle-S-T-W-S-Aib-Rds-K-K(Ac)-K(PEG2-PEG2-PEG2-gE-gE-gE-Stea)-NH2) [peptide of SEQ ID NO: 148]	nM	0.11
Ac-LEGREKVRAK(Ac)I[Aib][Aib]EG[Nle]STWS[Aib][Arg(Me)][Lys(Me3)]K(Ac)K([PEG2′-PEG2′-PEG2′-γGlu-γGlu-γGlu-Stearoyl])-NH2 [peptide of SEQ ID NO: 137]	nM	0.21
Ac-LEGREKVRAQI[Aib][Aib]EG[Nle]STWS[Aib]RKKK([γGlu-γGlu-PEG2″-PEG2″-PEG2″-γGlu-Stearoyl])-NH2 [peptide of SEQ ID NO: 106]	nM	0.34
Ac-LEGREKVRAK(Ac)I[Aib][Aib]EGK(Ac)STWS[Aib]RKKK([PEG2′-PEG2′-γGlu-γGlu-γGlu-Palmitoyl])-NH2 [peptide of SEQ ID NO: 61]	nM	0.17
Ac-LEGREKVRAK(Ac)I[Aib][Aib]EG[Nle]STWS[Aib]RKK(Ac)[PEG8′]K([γGlu-γGlu-γGlu-Palmitoyl])-NH2 [peptide of SEQ ID NO: 181]	nM	1.63
Ac-LEGREKVRAK(Ac)I[Aib][Aib]EG[Nle]STFSXRAK(Ac)[PEG2′][PEG2′][PEG2′][PEG2′][γGlu][γGlu]K([γGlu-γGlu-Palmitoyl])-NH2 (not fully specified (some residues); printed as Ac-L-E-G-R-E-K-V-R-A-K(Ac)-I-Aib-Aib-E-G-Nle-S-T-F-S-Mly-R-A-K(Ac)-PEG2-PEG2-PEG2-PEG2-gE-gE-K(gE-gE-Palm)-NH2) [peptide of SEQ ID NO: 160]	nM	0.28

1. Ac-LEGREKVRAK(Ac)I[Aib][Aib]EG[Nle]STWS[Aib]RKK(Ac)K([PEG2′-PEG2′-PEG2′-γGlu-γGlu-γGlu-Arachidoyl])-NH2 [peptide of SEQ ID NO: 171]
2. Ac-LEGREKVRAK(Ac)I[Aib][Aib]EG[Nle]STWS[Aib]RKK(Ac)K([PEG2DGA-PEG2DGA-PEG2DGA-γGlu-γGlu-γGlu-Stearoyl])-NH2 [peptide of SEQ ID NO: 96]
3. Ac-LEGREKVRAK(Ac)I[Aib][Aib]EG[Nle]STFS[αMeK]RAK(Ac)[PEG2′][PEG2′][PEG2′][PEG2′]K([γGlu-γGlu-γGlu-Palmitoyl])-NH2 [peptide of SEQ ID NO: 192]
4. Ac-LEGREKVRAK(Ac)I[Aib][Aib]EG[Nle]STFS[Aib]RKK(Ac)K([PEG2″-PEG2″-PEG2″-γGlu-γGlu-γGlu-Stearoyl])-NH2 [peptide of SEQ ID NO: 112]
5. Ac-LEGREKVRAK(Ac)I[Aib][Aib]EG[Nle]STWS[Aib]RKK(Ac)K([PEG2′-PEG2′-PEG2′-γGlu-γGlu-γGlu-Pentadecanoyl])-NH2 [peptide of SEQ ID NO: 163]
Task item: Sort these binders on EC50 (nM), OVCAR 5 cells (cAMP) so the largest reading comes first. Answer format: the labels, ordered as requested.
Reply: 5, 2, 3, 4, 1
(5: 5.3 nM, 2: 1.77 nM, 3: 0.62 nM, 4: 0.32 nM, 1: 0.18 nM)
